Origin of the recorded values: patent US20240279318A1

target: group 1: ZNF566 and ARNTL homologous peptide/HLA-A*02:01 complexes (mixed); experiment: SPR (BIAcore T200), crude scFv captured, mixed complexes flowed over
Please go through the items and note down their SPR binding level.
Numbers only, in RU.

Inquiry: Tell me the measured SPR binding level of 70-AS170036 VL1VH1-57K98I108A (scFv) scFv: QSALTQPRSVSGSPGQSVTISCAGTSSDVGSENYVSWYQQHPGKAPKLMIYQVNKRASGVPDRFSGSKSGNTASLTISGLQAEDEADYYCASYRSSDINIVFGGGTKLTVLGGGGSGGGGSGGGGSEVQLVESGGGLVQPGGSLRLSCAASGFTFSSYAMSWVRQAPGKGLEWVSTINSGTGKPYYADSVKGRFTISRDNSKNTLYLQMNSLRAEDTAVYYCAKNFFDGSWFLAPPAMDYWGQGTLVTVSSHHHHHH , please.
Reply text: 33.7

Inquiry: Any idea what its SPR binding level is? The binder is 75-AS170036 VL1VH1-57K98Q108S (scFv) scFv: QSALTQPRSVSGSPGQSVTISCAGTSSDVGSENYVSWYQQHPGKAPKLMIYQVNKRASGVPDRFSGSKSGNTASLTISGLQAEDEADYYCASYRSSDQNIVFGGGTKLTVLGGGGSGGGGSGGGGSEVQLVESGGGLVQPGGSLRLSCAASGFTFSSYAMSWVRQAPGKGLEWVSTINSGTGKPYYADSVKGRFTISRDNSKNTLYLQMNSLRAEDTAVYYCAKNFFDGSWFLSPPAMDYWGQGTLVTVSSHHHHHH
Reply text: 22.6

Then there is this binder:
Inquiry: Look at this binder and give its reported SPR binding level. 03-AS170036 VL1VH1-56Y98Q (scFv) scFv: QSALTQPRSVSGSPGQSVTISCAGTSSDVGSENYVSWYQQHPGKAPKLMIYQVNKRASGVPDRFSGSKSGNTASLTISGLQAEDEADYYCASYRSSDQNIVFGGGTKLTVLGGGGSGGGGSGGGGSEVQLVESGGGLVQPGGSLRLSCAASGFTFSSYAMSWVRQAPGKGLEWVSTINSGTYSPYYADSVKGRFTISRDNSKNTLYLQMNSLRAEDTAVYYCAKNFFDGSWFLGPPAMDYWGQGTLVTVSSHHHHHH
Reply text: 4
